Biological target: T1, SEMG2(563-574) fragment (human)
T1 peptide: VAQDDHLTQQYN
Assay: ELISA, immobilized antigen SEMG2 (563-574)
experimental_readout: binding result

Using the record for MM07 (antibody, V domains shown, The VH and VL begin with what look like leader peptides (MDWLW..., MVSSAQ...)) VH: QIQLVQSGPELKKPGETVRISCKASGYTLTTAGMQWVQKIPGKGLKWIGWINTHSGVAEFAEDFKGRFAFSLETSANTAYLQIRNLKNEDTATYFCARLGLLGYWGQGTTLTVSS VL: DILLTQSPAILSVSPGERVSFSCRASQSIGTTIHWYQQRTNGSPRLLIKYASESISGIPSRFSGSGSGTDFTLSINSVESEDIADYYCQQSNSWPWTFGGGTKLEIKR , report its binding result.
no binding

Next up: MM02 (antibody, IgG2b, V domains shown) VH: QIQLVQSGPEVKKPGETVRISCKASGYTLTTAGIQWVQKMPGKGLKWIGWINTHSGVPEYAEDFKGRFAFFLETSASTAYLQISNLKNEDTATYFCARLGLLGYWGQGTTLTVSS VL: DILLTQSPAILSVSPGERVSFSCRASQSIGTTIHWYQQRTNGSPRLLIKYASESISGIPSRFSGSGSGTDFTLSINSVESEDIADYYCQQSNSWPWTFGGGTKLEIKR
no binding
